Test Summary: in vitro
Test Context: human, a549 cells
Value Type: CC50 at 48 h

Measured CC50 at 48 h, C[C@@H]1O[C@@H](Cc2ccccc2)CC1[Si](c1ccccc1)(c1ccccc1)c1ccccc1 (stereo partly shown) [SPL-0] : > 50 µM

* * *

Test Summary: in vitro
Test Context: pig, st cells
Value Type: CC50 at 48 h

So, C[C@@H]1O[C@@H](Cc2ccccc2)CC1[Si](c1ccccc1)(c1ccccc1)c1ccccc1 (stereo partly shown) [SPL-0] ? Its CC50 at 48 h was > 100 µM

* * *

Tested on: TGEV
Test Summary: TGEV viral titration by plaque assay in ST cells
Assay type: cell-based, transmissible gastroenteritis virus (TGEV)
Test Context: Alphacoronavirus 1; viral titration (plaque assay), ST cells, MOI 0.01, 24 h; read-out: EC50 against TGEV
Value Type: EC50 (µM)
Output spec: scalar in µM, unitless text.

Short answer for C[C@@H]1O[C@@H](Cc2ccccc2)CC1[Si](c1ccccc1)(c1ccccc1)c1ccccc1 (stereo partly shown) [SPL-0] : EC50 was 15.6
